biological target: Cannabinoid receptor 1 (Homo sapiens)
Criterion: Ki strictly less than 0.02 µM. Met: 1 (yes). Not met: 0 (no).

Hi there! Is Ki for "O=C(NC1CCCCCC1)c1c(-c2ccccc2)c(Br)cn(Cc2ccc(F)cc2)c1=O" below 0.02 µM, do you know?
0 (no)

How about "O=C(NC1CCCCCC1)c1c(-c2ccccc2)c(-c2ccccc2)cn(Cc2ccc(F)cc2)c1=O" ?
0 (no)

Could you do the same for "COc1ccc(-c2cn(Cc3ccc(F)cc3)c(=O)c(C(=O)NC3CCCCCC3)c2-c2ccccc2)cc1" , please?
0 (no)

Then this compound: "Cc1c(Br)cn(Cc2ccc(F)cc2)c(=O)c1C(=O)NC1CCCCCC1"
1 (yes)

Okay, and "Cc1c(-c2ccccc2)cn(Cc2ccc(F)cc2)c(=O)c1C(=O)NC1CCCCCC1" ?
0 (no)

# input for lookup
For "COc1ccc(-c2ccn(Cc3ccc(F)cc3)c(=O)c2C(=O)NC2CCCCCC2)cc1" , is the recorded Ki below the cut-off of 0.02 µM?
0 (no)

###

species: Homo sapiens; test: Selectivity ratio of Ki for human CB1 receptor to Ki for human CB2 receptor
Property label: Ratio Ki

Example cases with answers are listed next.
What value of measured Ratio Ki is listed for "COc1ccc(-c2cn(Cc3ccc(F)cc3)c(=O)c(C(=O)NC3CCCCCC3)c2-c2ccccc2)cc1" ?
2 to 54

And the next one, "Cc1c(Br)cnc(OCc2ccc(F)cc2)c1C(=O)NC1CCCCCC1" ?
0.18

And the next one, "Cc1c(Br)cn(Cc2ccc(F)cc2)c(=O)c1C(=O)NC1CCCCCC1" ?
0.65

Others:
For the compound shown here, "Cc1ccn(Cc2ccc(F)cc2)c(=O)c1C(=O)NC1CCCCCC1" , give the reported Ratio Ki.
2 to 54

Moving on to the next compound: "Cc1c(-c2ccccc2)cn(Cc2ccc(F)cc2)c(=O)c1C(=O)NC1CCCCCC1"
2 to 54

Thanks! And "COc1ccc(-c2cn(Cc3ccc(F)cc3)c(=O)c(C(=O)NC3CCCCCC3)c2C)cc1" ?
2 to 54

Okay, and "Cc1ccnc(OCc2ccc(F)cc2)c1C(=O)NC1CCCCCC1" ?
2 to 54

What about "COc1ccc(-c2c(Br)cn(Cc3ccc(F)cc3)c(=O)c2C(=O)NC2CCCCCC2)cc1" ?
2 to 54

Try the compound "O=C(NC1CCCCCC1)c1c(-c2ccccc2)c(Br)cn(Cc2ccc(F)cc2)c1=O"
2 to 54

###

The entries below come with measured IC50 values attached.
molecular target: Lysophosphatidylserine lipase ABHD12 (Homo sapiens, UniProt Q8N2K0); experiment: Inhibition of human ABHD12 expressed in HEK293 cells using 2-OG as substrate preincubated for 30 mins followed by substrate addition and measured after 5 mins by liquid scintillation spectroscopic method
Sequence (Q8N2K0 whole entry): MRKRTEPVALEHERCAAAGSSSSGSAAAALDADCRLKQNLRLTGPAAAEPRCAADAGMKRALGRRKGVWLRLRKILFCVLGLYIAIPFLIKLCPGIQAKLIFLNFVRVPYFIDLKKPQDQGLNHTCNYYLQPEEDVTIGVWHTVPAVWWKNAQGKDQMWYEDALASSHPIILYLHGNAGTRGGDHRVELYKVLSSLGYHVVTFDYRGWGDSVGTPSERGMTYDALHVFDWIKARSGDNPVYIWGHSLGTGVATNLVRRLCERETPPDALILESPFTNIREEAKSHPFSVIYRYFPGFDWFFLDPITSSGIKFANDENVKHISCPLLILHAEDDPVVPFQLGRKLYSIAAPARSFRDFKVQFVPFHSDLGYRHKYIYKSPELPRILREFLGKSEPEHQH

Record lookup: for Lysophosphatidylserine lipase ABHD12 (Homo sapiens, UniProt Q8N2K0), what IC50 belongs to "O=C(NC1CCCCCC1)c1c(-c2ccccc2)c(-c2ccccc2)cn(Cc2ccc(F)cc2)c1=O" ?
> 10 µM

Continuing:
Write down the reported IC50 of "Cc1ccnc(OCc2ccc(F)cc2)c1C(=O)NC1CCCCCC1" , test system: Lysophosphatidylserine lipase ABHD12 (Homo sapiens, UniProt Q8N2K0).
> 10 µM

Please answer likewise for "O=C(NC1CCCCCC1)c1c(-c2ccccc2)c(Br)cn(Cc2ccc(F)cc2)c1=O"
> 10 µM

###

Let's go through some Ki measurements on Cannabinoid receptor 2 (Homo sapiens, UniProt P34972) together.
Sequence (P34972 whole entry): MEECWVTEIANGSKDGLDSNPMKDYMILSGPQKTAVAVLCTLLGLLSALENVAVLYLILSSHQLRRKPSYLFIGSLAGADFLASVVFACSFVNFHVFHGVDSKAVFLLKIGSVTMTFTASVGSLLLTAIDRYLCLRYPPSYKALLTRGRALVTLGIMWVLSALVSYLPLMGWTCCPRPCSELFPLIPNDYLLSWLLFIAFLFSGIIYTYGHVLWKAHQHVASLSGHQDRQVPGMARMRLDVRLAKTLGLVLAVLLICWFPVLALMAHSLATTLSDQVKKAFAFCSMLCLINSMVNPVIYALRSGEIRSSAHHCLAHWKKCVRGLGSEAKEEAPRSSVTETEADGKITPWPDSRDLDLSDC

A selection of reference data follows.
# get_value(readout='Ki', item= "O=C(NC1CCCCCC1)c1c(-c2ccccc2)c(-c2ccccc2)cn(Cc2ccc(F)cc2)c1=O" )
> 10 µM

Next compound: "COc1ccc(-c2c(Br)cn(Cc3ccc(F)cc3)c(=O)c2C(=O)NC2CCCCCC2)cc1"
> 10 µM

# context switch: different compound, same Ki
Param item = "COc1ccc(-c2ccn(Cc3ccc(F)cc3)c(=O)c2C(=O)NC2CCCCCC2)cc1" ; retrieve measured Ki.
> 10 µM

###

// values below are Ki; system is Cannabinoid receptor 1 (Homo sapiens, UniProt P21554)
Sequence (P21554 whole entry): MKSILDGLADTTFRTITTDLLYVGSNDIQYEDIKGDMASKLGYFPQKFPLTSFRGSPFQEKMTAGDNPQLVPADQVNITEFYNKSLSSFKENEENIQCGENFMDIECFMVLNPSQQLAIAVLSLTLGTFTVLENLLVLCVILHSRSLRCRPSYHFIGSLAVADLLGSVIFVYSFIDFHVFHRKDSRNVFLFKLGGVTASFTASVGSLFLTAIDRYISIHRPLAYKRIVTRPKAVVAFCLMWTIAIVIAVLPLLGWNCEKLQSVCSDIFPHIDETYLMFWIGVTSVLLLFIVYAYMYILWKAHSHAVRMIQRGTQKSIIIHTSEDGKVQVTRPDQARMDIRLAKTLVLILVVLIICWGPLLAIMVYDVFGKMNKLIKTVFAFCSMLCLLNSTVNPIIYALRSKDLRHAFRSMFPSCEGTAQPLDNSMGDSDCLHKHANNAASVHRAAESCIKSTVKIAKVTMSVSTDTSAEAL
Give the value in nM but do not write nM after it.

Field: example entries. Status: answers known.
Recorded Ki for "COc1ccc(-c2cn(Cc3ccc(F)cc3)c(=O)c(C(=O)NC3CCCCCC3)c2C)cc1" , please?
30.7

Queued: "Cc1c(Br)cnc(OCc2ccc(F)cc2)c1C(=O)NC1CCCCCC1"
113

Field entry: "Cc1ccnc(OCc2ccc(F)cc2)c1C(=O)NC1CCCCCC1"
131

Continuing:
Entry under review: "Cc1ccn(Cc2ccc(F)cc2)c(=O)c1C(=O)NC1CCCCCC1" . Reported Ki?
11.7
